Sourced from ChEMBL document CHEMBL3286091

Consider the following molecules; for each one, report its MIC.
# System: Mycobacterium tuberculosis
# METHOD DESCRIPTION: Antimycobacterial activity against 2-oxo-1-(2-(4-((3-oxo-3,4-dihydro-2H-pyrido[3,2-b][1,4]oxazin-6-yl)methylamino)piperidin-1-yl)ethyl)-1,2-dihydroquinoline-7-carbonitrile-resistant Mycobacterium tuberculosis harboring DNA gyraseA A74V mutant
# Type: functional
State the answer as a number, implicitly in µg/mL.

INPUT: Find the measured MIC: item COc1c(N2C[C@@H]3CCCN[C@@H]3C2)c(F)cc2c(=O)c(C(=O)O)cn(C3CC3)c12 , target or system Mycobacterium tuberculosis.
OUTPUT: 0.06

INPUT: Cool, now CO[C@H]1/C=C/O[C@@]2(C)Oc3c(C)c(O)c4c(O)c(c(/C=N/N5CCN(C)CC5)c(O)c4c3C2=O)NC(=O)/C(C)=C\C=C\[C@H](C)[C@H](O)[C@@H](C)[C@@H](O)[C@@H](C)[C@H](OC(C)=O)[C@@H]1C
OUTPUT: 0.008

INPUT: Cool, now O=C(O)c1cn(C2CC2)c2cc(N3CCNCC3)c(F)cc2c1=O
OUTPUT: 0.25

INPUT: Cool, now N#Cc1ccc2ccc(=O)n(CCN3CCC(NCc4ccc5c(n4)NC(=O)CO5)CC3)c2c1
OUTPUT: 2

INPUT: Cool, now NNC(=O)c1ccncc1
OUTPUT: 0.06

INPUT: Cool, now COc1cnc2ccc(=O)n(CCN3CC[C@@H](NCc4cnc(C)c(C#N)c4)[C@@H](F)C3)c2c1
OUTPUT: 1

INPUT: Cool, now CC1COc2c(N3CCN(C)CC3)c(F)cc3c(=O)c(C(=O)O)cn1c23 (centres undefined)
OUTPUT: 1
